Test system: P. aeruginosa ATCC27853
measurementProtocol: Bacterial growth minimal inhibitory concentration, P. aeruginosa ATCC27853
Assay type: cell-based
testContext: Pseudomonas aeruginosa, ATCC27853; quinolone-sensitive strain; cation-adjusted Mueller-Hinton Broth, microdilution
Would you kindly list MIC for each of these compounds?
Kindly provide the numeric value in µg/mL only, without the unit symbol.

Any idea what MIC was measured for C[C@@H]1[C@@H](C#CC#Cc2ccc3nc(CC[C@](C)(C(=O)NO)S(C)(=O)=O)sc3c2)CN1C ? 0.5

Now try C[C@@](CCc1nc2ccc(C#CC#CC3CN(CCCO)C3)cc2s1)(C(=O)NO)S(C)(=O)=O . 1

Same read-out for CN1CC(C#CC#Cc2ccc3nc(CC[C@](C)(C(=O)NO)S(C)(=O)=O)sc3c2)C1 ? 1

What would you report for CN1C[C@@H](C#CC#Cc2ccc3nc(CC[C@](C)(C(=O)NO)S(C)(=O)=O)sc3c2)C[C@@H]1CO ? 1

Then C[C@@](CCc1nc2ccc(C#CC#CC3CN(C4CC(O)C4)C3)cc2s1)(C(=O)NO)S(C)(=O)=O (stereo partly drawn) ? 1

Then this compound: CN1CCC(F)(C#CC#Cc2ccc3nc(CC[C@](C)(C(=O)NO)S(C)(=O)=O)sc3c2)CC1 1

Try this compound next: CN1CC[C@H]1C#CC#Cc1ccc2nc(CC[C@](C)(C(=O)NO)S(C)(=O)=O)sc2c1 2

What about C[C@@](CCc1nc2ccc(C#CC#CC3CN(CCF)C3)cc2s1)(C(=O)NO)S(C)(=O)=O ? 1

Please answer likewise for C[C@@](CCc1nc2ccc(C#CC#C[C@@H]3CC[C@H]3CO)cc2s1)(C(=O)NO)S(C)(=O)=O 1
